molecular target: HAT p300 (histone acetyltransferase p300) (Homo sapiens); test: HAT activity kit (Biovision K332): inhibition of HAT activity of p300; type: biochemical; conditions: 0.5, 1, 10 or 100 μM
Sequence (Q09472 whole entry): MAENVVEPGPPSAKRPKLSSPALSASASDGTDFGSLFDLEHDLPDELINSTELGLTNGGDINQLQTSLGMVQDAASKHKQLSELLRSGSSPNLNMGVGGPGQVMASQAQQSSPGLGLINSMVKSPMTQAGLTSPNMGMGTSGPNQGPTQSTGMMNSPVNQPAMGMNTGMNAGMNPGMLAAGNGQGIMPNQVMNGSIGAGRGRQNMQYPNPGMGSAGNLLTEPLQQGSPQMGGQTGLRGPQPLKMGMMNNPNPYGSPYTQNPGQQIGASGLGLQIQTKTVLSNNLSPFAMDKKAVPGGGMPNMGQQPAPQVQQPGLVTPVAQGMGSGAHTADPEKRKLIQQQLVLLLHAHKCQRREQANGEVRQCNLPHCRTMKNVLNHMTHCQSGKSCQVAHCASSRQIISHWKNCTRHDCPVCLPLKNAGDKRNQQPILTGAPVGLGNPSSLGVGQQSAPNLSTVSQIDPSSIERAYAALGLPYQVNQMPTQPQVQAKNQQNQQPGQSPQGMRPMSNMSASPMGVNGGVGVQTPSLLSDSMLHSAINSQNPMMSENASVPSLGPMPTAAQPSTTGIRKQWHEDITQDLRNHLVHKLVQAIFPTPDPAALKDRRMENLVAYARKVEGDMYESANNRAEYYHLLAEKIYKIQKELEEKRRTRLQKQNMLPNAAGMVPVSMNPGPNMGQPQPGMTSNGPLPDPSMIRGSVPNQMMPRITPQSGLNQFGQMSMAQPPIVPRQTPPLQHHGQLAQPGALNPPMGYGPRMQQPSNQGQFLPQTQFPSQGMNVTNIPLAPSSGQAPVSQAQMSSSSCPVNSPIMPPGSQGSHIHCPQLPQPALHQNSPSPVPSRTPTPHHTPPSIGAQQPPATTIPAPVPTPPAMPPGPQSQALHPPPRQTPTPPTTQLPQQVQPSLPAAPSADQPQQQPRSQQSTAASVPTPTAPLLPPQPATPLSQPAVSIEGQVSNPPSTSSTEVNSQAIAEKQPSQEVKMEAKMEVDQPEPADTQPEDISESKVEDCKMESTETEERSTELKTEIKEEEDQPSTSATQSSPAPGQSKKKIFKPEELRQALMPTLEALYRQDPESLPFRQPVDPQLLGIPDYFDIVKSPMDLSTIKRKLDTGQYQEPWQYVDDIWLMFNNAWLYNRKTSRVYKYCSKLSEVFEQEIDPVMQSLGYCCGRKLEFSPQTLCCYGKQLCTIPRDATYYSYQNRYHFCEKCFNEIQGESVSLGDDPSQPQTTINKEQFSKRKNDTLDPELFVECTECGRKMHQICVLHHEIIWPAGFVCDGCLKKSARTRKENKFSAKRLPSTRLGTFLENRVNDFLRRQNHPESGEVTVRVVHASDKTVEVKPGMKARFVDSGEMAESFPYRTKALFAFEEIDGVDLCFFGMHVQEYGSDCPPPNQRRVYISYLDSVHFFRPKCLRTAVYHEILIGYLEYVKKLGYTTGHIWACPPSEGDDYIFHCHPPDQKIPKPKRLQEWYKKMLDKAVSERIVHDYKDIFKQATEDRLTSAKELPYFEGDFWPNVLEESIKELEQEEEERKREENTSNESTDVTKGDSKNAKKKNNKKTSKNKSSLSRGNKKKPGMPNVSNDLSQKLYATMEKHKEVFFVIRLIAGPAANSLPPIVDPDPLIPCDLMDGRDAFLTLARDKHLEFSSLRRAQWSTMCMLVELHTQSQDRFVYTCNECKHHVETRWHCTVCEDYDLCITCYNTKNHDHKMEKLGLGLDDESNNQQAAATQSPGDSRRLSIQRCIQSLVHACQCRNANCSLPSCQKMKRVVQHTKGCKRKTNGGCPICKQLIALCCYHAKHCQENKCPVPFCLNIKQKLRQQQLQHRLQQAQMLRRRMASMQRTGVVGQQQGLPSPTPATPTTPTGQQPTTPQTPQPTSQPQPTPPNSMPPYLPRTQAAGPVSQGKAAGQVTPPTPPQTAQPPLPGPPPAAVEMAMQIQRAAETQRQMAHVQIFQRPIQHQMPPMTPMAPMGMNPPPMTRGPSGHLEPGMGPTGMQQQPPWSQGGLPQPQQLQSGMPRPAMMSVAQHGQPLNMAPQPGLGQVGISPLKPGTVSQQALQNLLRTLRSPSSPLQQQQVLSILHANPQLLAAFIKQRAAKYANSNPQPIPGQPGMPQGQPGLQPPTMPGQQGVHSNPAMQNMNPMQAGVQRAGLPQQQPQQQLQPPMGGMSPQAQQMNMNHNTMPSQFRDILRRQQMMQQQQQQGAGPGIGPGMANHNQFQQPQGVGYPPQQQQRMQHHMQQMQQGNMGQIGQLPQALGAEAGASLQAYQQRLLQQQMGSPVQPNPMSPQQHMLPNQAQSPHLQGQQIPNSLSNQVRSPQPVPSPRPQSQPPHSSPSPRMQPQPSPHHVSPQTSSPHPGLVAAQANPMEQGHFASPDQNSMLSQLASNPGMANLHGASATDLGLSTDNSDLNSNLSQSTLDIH
Measured IC50 by item
Report the value in µM with no unit label.

INSERT INTO assay_data (compound, target_or_test_system, measurement_unit, reported_measurement) VALUES
  ('COc1cc(/C=C/C(=O)c2cccc(O)c2)cc(Br)c1OCc1cccc(C(N)=O)c1 [Synthesis Example 8]', 'HAT p300 (histone acetyltransferase p300) (Homo sapiens)', 'µM', 1.06);

stdin: Fill in: IC50 of COc1cc(/C=C/C(=O)c2cccc(C(N)=O)c2)cc(I)c1OCc1cccc(C(N)=O)c1 [Synthesis Example 6] is ___
stdout: 0.87
